target_of_assay: T1, CgPho4 DBD (Candida glabrata, UniProt Q6FVW0 452-533)
T1 sequence: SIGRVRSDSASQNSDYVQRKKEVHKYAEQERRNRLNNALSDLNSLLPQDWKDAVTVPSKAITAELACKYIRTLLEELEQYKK
experiment_description: EMSA; 5 mM MgCl2, 1 mM EDTA; 4 C; BLI: 1x PBS pH 7.4, 0.01% BSA, 0.002% Tween-20, 0.005% sodium azide, 30 C; EMSA: 20 mM Tris-HCl pH 8, 150 mM KCl, 10% glycerol, 5 mM MgCl2, 1 mM EDTA, 1 mM DTT, 4 C
recorded_conditions: protein: recombinant; tags: C-terminal 6xHis; chain copies: 2; label: IR700; blunt
quantity: pKd
Expect pKd as a plain number equal to -log10 of the molar concentration.

Task item: So what's the measured pKd for this one? 17-bp consensus E-box, EMSA probe (dsDNA) DNA 1: CTAGTCCCACGTGTGAG DNA 2: CTCACACGTGGGACTAG
Reply: 8.72
